# pIC50 annotations
Test Target: C5a anaphylatoxin chemotactic receptor 1 (Homo sapiens, UniProt P21730)
Sequence (P21730 whole entry): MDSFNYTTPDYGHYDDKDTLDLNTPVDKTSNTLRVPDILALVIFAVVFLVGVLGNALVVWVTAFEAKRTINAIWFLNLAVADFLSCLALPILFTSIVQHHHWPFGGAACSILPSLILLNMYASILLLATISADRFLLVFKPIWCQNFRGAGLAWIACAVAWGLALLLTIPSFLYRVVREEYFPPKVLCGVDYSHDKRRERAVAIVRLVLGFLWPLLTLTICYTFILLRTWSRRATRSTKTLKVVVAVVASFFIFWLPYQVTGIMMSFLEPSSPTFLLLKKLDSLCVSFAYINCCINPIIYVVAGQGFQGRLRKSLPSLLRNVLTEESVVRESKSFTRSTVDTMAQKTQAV
Measurement Notes: Antagonist activity at human recombinant C5a receptor in U937 cells assessed as inhibition of C5a-induced calcium mobilization by FLIPR assay
Quick note: pIC50 values are minus log10 of concentrations in mol/L.

CCc1cccc(CC)c1-c1cc(OC(C)C)c2c(n1)CCCC2Nc1ccccc1CCO (racemic) = 8.15
CCc1cccc(CC)c1-c1cc(OC)c2c(n1)CCCC2Nc1ccccc1CO (stereo not drawn) = 6.92
CCc1cccc(CC)c1-c1cc(OC)c2c(n1)CCCC2Nc1cc(F)ccc1C (stereo not drawn) = 5.85
CCc1cccc(CC)c1-c1cc(OC)c2c(n1)CCCC2N(C)c1cc(Cl)ccc1C (racemic) = 5.59
CCc1cccc(CC)c1-c1cc(OC)c2c(n1)CCCC2Nc1cc(OC)ccc1C (stereo not drawn) = 6.85

Alright, here's another molecule for you.
Measured pIC50 of CCc1cccc(CC)c1-c1cc(OC)c2c(n1)CCCC2Nc1cc(C)ccc1C (stereo not drawn) : 6.37

Reference for the values: ChEMBL document CHEMBL1155122
